Some compounds, each annotated with its measured pIC50.
Tested on: HCT-15
protocolDescription: Cytotoxicity against human HCT15 cells after 48 hrs by SRB method
Type: functional, cell-based
measurementConditions: HCT-15, 48 h
pIC50: −log10 of the molar value.
valueType: pIC50

c1cc(-c2cc(-c3ccsc3)cc(-c3ccsc3)n2)ccn1 :: 5.60
c1cncc(-c2cc(-c3ccsc3)cc(-c3cccs3)n2)c1 :: 5.39
c1csc(-c2cc(-c3ccncc3)nc(-c3cccs3)c2)c1 :: 5.76
c1coc(-c2cc(-c3ccncc3)nc(-c3cccs3)c2)c1 :: 5.38
c1cncc(-c2cc(-c3ccco3)cc(-c3cccs3)n2)c1 :: 5.23
COc1cc([C@@H]2c3cc4c(cc3[C@@H](O[C@@H]3O[C@@H]5CO[C@@H](C)O[C@H]5[C@H](O)[C@H]3O)[C@H]3COC(=O)[C@H]23)OCO4)cc(OC)c1O [ETOPOSIDE] :: 5.61
c1csc(-c2cc(-c3ccncc3)nc(-c3ccsc3)c2)c1 :: 5.42
